# Measured Target: HiBiT G1202R Variant 1 EML4-ALK (Homo sapiens, UniProt Q9UM73, G1202R)
# Sequence (Q9UM73 with tags, fused parts or gaps G1202R): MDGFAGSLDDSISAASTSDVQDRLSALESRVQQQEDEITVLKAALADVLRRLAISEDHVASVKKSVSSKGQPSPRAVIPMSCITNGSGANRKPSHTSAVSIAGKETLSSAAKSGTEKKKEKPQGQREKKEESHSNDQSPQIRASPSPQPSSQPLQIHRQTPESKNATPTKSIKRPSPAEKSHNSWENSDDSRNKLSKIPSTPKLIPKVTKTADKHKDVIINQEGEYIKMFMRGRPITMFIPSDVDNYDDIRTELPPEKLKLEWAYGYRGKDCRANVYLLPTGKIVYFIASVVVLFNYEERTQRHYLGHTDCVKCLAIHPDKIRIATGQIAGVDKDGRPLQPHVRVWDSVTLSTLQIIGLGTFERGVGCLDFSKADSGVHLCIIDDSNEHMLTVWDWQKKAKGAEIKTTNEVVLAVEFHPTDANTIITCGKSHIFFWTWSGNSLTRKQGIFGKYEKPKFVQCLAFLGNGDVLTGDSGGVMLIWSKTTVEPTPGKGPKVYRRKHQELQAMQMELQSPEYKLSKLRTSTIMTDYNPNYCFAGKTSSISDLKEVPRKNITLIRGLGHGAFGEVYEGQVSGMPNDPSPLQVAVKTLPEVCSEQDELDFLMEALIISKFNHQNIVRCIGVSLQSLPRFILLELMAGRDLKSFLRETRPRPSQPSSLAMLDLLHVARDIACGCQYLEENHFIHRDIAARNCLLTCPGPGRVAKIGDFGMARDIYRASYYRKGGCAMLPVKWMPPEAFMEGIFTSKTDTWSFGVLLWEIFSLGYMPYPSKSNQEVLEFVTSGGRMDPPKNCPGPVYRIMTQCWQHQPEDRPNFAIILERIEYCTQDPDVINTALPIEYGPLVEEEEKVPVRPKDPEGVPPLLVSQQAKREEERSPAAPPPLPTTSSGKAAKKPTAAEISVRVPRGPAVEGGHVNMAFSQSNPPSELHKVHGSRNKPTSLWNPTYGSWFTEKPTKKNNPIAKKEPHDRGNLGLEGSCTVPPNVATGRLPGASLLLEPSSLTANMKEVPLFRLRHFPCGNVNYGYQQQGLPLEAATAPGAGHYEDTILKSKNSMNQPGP
# Sequence (Q96SW2 whole entry partner): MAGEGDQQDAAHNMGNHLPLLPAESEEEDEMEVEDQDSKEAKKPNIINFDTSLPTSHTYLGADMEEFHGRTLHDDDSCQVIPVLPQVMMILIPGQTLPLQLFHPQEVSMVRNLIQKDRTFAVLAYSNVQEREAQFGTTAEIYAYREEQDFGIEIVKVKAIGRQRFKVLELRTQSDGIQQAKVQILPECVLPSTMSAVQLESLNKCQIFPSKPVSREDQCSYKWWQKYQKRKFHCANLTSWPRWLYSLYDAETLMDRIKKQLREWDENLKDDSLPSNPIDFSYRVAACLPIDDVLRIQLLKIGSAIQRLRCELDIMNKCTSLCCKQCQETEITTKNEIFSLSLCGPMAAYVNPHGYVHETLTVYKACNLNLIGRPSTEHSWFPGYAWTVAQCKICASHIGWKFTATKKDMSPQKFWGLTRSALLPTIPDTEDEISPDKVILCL
# Sequence (Q3U1J4 whole entry partner): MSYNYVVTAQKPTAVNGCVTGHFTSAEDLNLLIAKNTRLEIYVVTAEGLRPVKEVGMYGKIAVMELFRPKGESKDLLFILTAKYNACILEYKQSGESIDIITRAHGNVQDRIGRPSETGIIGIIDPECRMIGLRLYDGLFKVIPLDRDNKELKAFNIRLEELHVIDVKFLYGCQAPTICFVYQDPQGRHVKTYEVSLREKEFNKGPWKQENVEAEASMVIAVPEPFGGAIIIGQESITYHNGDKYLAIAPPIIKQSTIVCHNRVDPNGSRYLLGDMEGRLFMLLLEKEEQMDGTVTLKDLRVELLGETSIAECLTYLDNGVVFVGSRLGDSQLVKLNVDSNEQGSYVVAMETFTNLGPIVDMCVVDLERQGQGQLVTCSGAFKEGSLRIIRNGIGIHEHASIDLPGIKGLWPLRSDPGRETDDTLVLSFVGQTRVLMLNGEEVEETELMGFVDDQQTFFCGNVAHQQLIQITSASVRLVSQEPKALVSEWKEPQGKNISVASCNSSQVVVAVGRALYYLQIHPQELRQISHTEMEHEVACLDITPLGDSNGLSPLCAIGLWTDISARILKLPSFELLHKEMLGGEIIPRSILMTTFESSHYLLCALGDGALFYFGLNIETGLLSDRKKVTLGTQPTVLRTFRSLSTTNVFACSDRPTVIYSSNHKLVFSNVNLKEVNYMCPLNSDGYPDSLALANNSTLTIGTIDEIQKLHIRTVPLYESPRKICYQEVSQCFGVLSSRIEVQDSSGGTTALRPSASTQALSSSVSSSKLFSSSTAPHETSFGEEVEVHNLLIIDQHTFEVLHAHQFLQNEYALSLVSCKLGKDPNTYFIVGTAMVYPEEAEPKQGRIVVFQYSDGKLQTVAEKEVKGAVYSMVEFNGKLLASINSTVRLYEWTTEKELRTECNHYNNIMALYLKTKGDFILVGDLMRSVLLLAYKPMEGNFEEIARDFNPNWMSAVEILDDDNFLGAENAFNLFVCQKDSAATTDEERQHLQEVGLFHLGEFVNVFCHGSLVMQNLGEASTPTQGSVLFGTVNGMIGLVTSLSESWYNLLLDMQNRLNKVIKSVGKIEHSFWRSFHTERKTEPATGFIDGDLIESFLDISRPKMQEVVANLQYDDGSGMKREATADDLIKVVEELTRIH
# Type: cell-based
# Assay Context: Ba/F3 cells, 0.0003-2 μM, 4 hours; read-out: BAF3 Cellular Degradation - HiBiT G1202R Variant 1 EML4-ALK: DC50
Reported Property: DC50 (nM)

Task item: If you can, please state the reported DC50 value of COc1cc(C2CCN(C[C@H]3CCN(c4ccc5c(c4)C(=O)N(C4CCC(=O)NC4=O)C5=O)C3)CC2)c(C)cc1Nc1ncc(Cl)c(Nc2ccccc2S(=O)(=O)C(C)C)n1 (some centres unmarked) .
Reply: 124

P. CNC(=O)c1ccccc1Nc1nc(Nc2cc(C)c(C3CCN(CC4CN(c5ccc6c(c5)C(=O)N(C5CCC(=O)NC5=O)C6=O)C4)CC3)cc2OC(C)C)ncc1C(F)(F)F (centres unmarked)
Q. COc1cc(C2CCN(C[C@@H]3CCN(c4ccc5c(c4)C(=O)N(C4CCC(=O)NC4=O)C5=O)C3)CC2)c(C)cc1Nc1ncc(Cl)c(Nc2ccccc2S(=O)(=O)C(C)C)n1 (some centres unmarked)
Task item: Would you let me know which has the greater DC50 value, P or Q ? Give the label under which the chosen entry appears.
Reply: P
(P: 71 nM, Q: 41 nM)

====

# Protocol Description: Mouse oral PK study
# Type: in vivo, male C57BI/6 mice
# Assay Context: male, C57BI/6, 10 mg/kg, PO, single dose, plasma
Reported Property: MRT inf (h)
// note: answer is a bare numeric in h

Task item: If you can, please state the reported MRT inf value of COc1cc(C2CCN(CC3CN(c4ccc5c(c4)C(=O)N(C4CCC(=O)NC4=O)C5=O)C3)CC2)c(C)cc1Nc1ncc(Cl)c(Nc2ccccc2S(=O)(=O)C(C)C)n1 (stereo not shown) [Compound 1] .
Reply: 8.51

====

# Measured Target: HiBiT G1202R Variant 1 EML4-ALK (Homo sapiens, UniProt Q9UM73, G1202R)
# Type: cell-based
# Assay Context: BaF3; Ba/F3 cells, 0.0003-2 μM, 4 hours; maximal level of degradation; read-out: BAF3 Cellular Degradation - HiBiT G1202R Variant 1 EML4-ALK: Dmax
Reported Property: Dmax (%)

Task item: If you can, please state the reported Dmax value of COc1cc(C2CCN(CCC3CN(c4ccc5c(c4)C(=O)N(C4CCC(=O)NC4=O)C5=O)C3)CC2)c(C)cc1Nc1ncc(Cl)c(Nc2ccccc2S(=O)(=O)C(C)C)n1 (stereo not drawn) .
Reply: 76

Task item: If you can, please state the reported Dmax value of COc1cc(C2CCN(C[C@@H]3CCN(c4ccc5c(c4)C(=O)N(C4CCC(=O)NC4=O)C5=O)C3)CC2)c(C)cc1Nc1ncc(Cl)c(Nc2ccccc2S(=O)(=O)C(C)C)n1 (stereo partly drawn) .
Reply: 86

Task item: If you can, please state the reported Dmax value of COc1cc(CN2CCC(O)(c3ccc4c(c3)CN(C3CCC(=O)NC3=O)C4=O)CC2)c(C)cc1Nc1ncc(Cl)c(Nc2ccccc2S(=O)(=O)C(C)C)n1 (stereo not drawn) .
Reply: 62

====

# Measured Target: HiBiT G1202R Variant 1 EML4-ALK (Homo sapiens, UniProt Q9UM73, G1202R)
# Type: cell-based
# Assay Context: Ba/F3 cells, 0.0003-2 μM, 4 hours; read-out: BAF3 Cellular Degradation - HiBiT G1202R Variant 1 EML4-ALK: DC50
Reported Property: DC50 (nM)

Task item: If you can, please state the reported DC50 value of COc1cc(C2CCN(CCC3CN(c4ccc5c(c4)C(=O)N(C4CCC(=O)NC4=O)C5=O)C3)CC2)c(C)cc1Nc1ncc(Cl)c(Nc2ccccc2S(=O)(=O)C(C)C)n1 (centres unmarked) [Compound 2] .
Reply: 10

Task item: If you can, please state the reported DC50 value of CNC(=O)c1ccccc1Nc1nc(Nc2cc(C)c(C3CCN(CC4CCN(c5ccc6c(c5)C(=O)N(C5CCC(=O)NC5=O)C6=O)CC4)CC3)cc2OC)ncc1C(F)(F)F (centres unmarked) [Compound 17] .
Reply: 23

Task item: If you can, please state the reported DC50 value of CCc1cc2c(cc1N1CC(CN3CCC(c4ccc5c(c4)CN(C4CCC(=O)NC4=O)C5=O)CC3)C1)C(C)(C)c1[nH]c3cc(C#N)ccc3c1C2=O (centres unmarked) [Compound 23] .
Reply: 95

I. CNC(=O)c1ccccc1Nc1nc(Nc2cc(C)c(C3CCN(CC4CCN(c5ccc6c(c5)C(=O)N(C5CCC(=O)NC5=O)C6=O)CC4)CC3)cc2OC(C)C)ncc1C(F)(F)F (centres unmarked) [Compound 19]
II. CCc1cc2c(cc1C#CCCCN1CCC(c3ccc4c(c3)CN(C3CCC(=O)NC3=O)C4=O)CC1)C(C)(C)c1[nH]c3cc(C#N)ccc3c1C2=O (centres unmarked) [Compound 22]
Task item: Which has the smaller recorded DC50, I or II ? Give the label under which the chosen entry appears.
Reply: II
(II: 6 nM, I: 114 nM)
